Recorded inhibition for the following compounds
Target or test system: Histone-lysine N-methyltransferase NSD2 (Homo sapiens) (UniProt O96028)
Sequence (O96028 whole entry, looked up): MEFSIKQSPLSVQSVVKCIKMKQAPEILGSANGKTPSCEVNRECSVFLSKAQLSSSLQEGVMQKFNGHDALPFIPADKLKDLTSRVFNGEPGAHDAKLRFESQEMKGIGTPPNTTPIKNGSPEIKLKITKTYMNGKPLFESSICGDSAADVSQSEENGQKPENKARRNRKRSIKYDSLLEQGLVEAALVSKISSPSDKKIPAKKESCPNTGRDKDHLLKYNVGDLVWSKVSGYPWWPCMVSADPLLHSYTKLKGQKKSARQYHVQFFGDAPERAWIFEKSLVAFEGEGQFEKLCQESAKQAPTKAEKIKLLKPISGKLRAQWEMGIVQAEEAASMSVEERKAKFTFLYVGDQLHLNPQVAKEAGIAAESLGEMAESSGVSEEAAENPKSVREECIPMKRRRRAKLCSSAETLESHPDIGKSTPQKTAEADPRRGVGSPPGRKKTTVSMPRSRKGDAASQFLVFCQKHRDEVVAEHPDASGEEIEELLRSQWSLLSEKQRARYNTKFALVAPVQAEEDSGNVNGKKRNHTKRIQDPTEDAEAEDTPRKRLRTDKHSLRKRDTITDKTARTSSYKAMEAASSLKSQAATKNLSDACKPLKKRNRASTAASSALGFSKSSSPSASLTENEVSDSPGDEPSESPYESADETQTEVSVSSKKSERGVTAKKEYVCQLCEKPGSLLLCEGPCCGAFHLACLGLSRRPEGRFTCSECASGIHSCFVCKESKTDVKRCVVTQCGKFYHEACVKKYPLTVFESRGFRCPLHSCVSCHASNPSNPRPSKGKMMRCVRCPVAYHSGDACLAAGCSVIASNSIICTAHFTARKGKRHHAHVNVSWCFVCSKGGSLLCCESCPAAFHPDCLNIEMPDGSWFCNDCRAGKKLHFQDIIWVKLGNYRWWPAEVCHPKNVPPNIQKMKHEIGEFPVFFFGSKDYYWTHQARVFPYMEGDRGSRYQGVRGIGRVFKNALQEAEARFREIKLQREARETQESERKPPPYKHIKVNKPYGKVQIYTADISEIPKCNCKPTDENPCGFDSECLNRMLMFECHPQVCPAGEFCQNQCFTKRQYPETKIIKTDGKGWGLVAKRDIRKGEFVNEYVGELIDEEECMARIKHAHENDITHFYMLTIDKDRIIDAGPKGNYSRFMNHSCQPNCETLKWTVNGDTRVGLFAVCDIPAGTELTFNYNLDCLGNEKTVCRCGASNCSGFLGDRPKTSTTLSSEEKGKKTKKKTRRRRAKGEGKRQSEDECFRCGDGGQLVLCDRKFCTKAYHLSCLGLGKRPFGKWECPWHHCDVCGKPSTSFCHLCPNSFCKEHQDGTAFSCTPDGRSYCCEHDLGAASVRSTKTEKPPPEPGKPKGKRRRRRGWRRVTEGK
Assay name: NSD2 histone methyltransferase activity blockers – biochemical, plate reader, single point, primary screen (AID 624260);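 further: inhibitors reduce the monomethyl H3K36 fluorescence signal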
Assay setup: NSD2-SET H3K36me1 DELFIA fluorescence, at 12.5 µM, stronger effect = higher value
The campaign covered roughly 44,000 compounds. About 30 (0.07%) were called active. About 1% were inconclusive and are not listed. Only a selection was taken, and actives are over-represented in it overall.
Measure name: inhibition (%)

Given smiles: C[C@H](CO)N1C[C@H](C)[C@@H](CN(C)C(=O)Nc2ccc3c(c2)OCO3)Oc2ccc(NS(=O)(=O)c3ccc(Cl)cc3)cc2CC1=O
Target or test system: Histone-lysine N-methyltransferase NSD2 (Homo sapiens) (UniProt O96028)
Measure name: inhibition
Unit: %
Readout value: 1.14

Given smiles: COc1ccc(C#Cc2cnc3c(c2)C(=O)N([C@H](C)CO)C[C@H](C)[C@H](CN(C)C(=O)CC2CC2)O3)cc1
Target or test system: Histone-lysine N-methyltransferase NSD2 (Homo sapiens) (UniProt O96028)
Measure name: inhibition
Unit: %
Readout value: -0.614

Given smiles: C/C=C/c1cnc2c(c1)C(=O)N([C@@H](C)CO)C[C@@H](C)[C@H](CN(C)Cc1cncnc1)O2
Target or test system: Histone-lysine N-methyltransferase NSD2 (Homo sapiens) (UniProt O96028)
Measure name: inhibition
Unit: %
Readout value: 2.06

Given smiles: Cc1cc(C)c(/C=C2\C(=O)Nc3ccccc32)[nH]1
Target or test system: Histone-lysine N-methyltransferase NSD2 (Homo sapiens) (UniProt O96028)
Measure name: inhibition
Unit: %
Readout value: -2.13

Given smiles: O=C(C[C@H]1C[C@@H]2c3cc(NC(=O)CC4CC4)ccc3O[C@@H]2[C@@H](CO)O1)NCc1cc(F)ccc1F
Target or test system: Histone-lysine N-methyltransferase NSD2 (Homo sapiens) (UniProt O96028)
Measure name: inhibition
Unit: %
Readout value: 9.35

Given smiles: O=C(C[C@H]1C[C@H]2c3cc(NC(=O)Nc4ccc(F)cc4)ccc3O[C@H]2[C@@H](CO)O1)NCC1CC1
Target or test system: Histone-lysine N-methyltransferase NSD2 (Homo sapiens) (UniProt O96028)
Measure name: inhibition
Unit: %
Readout value: 2.39

Given smiles: C[C@H]1CN([C@@H](C)CO)C(=O)c2cccc(NC(=O)Nc3ccc(C(F)(F)F)cc3)c2O[C@H]1CN(C)CC1CCCCC1
Target or test system: Histone-lysine N-methyltransferase NSD2 (Homo sapiens) (UniProt O96028)
Measure name: inhibition
Unit: %
Readout value: 1.34

Given smiles: C[C@H](CO)N1C[C@H](C)[C@@H](CN(C)Cc2ccccn2)Oc2ncc(-c3cccc(F)c3)cc2C1=O
Target or test system: Histone-lysine N-methyltransferase NSD2 (Homo sapiens) (UniProt O96028)
Measure name: inhibition
Unit: %
Readout value: 2.22

Given smiles: C[C@@H]1CN([C@H](C)CO)C(=O)c2cc(NC(=O)C3CCCCC3)ccc2O[C@@H](C)CCCCO[C@H]1CN(C)S(C)(=O)=O
Target or test system: Histone-lysine N-methyltransferase NSD2 (Homo sapiens) (UniProt O96028)
Measure name: inhibition
Unit: %
Readout value: -14.3

Given smiles: C[C@@H]1CN([C@H](C)CO)S(=O)(=O)c2ccc(Br)cc2O[C@@H]1CN(C)Cc1cncnc1
Target or test system: Histone-lysine N-methyltransferase NSD2 (Homo sapiens) (UniProt O96028)
Measure name: inhibition
Unit: %
Readout value: 1.53

Given smiles: C[C@@H]1CN([C@@H](C)CO)S(=O)(=O)c2ccc(C#CCN(C)C)cc2O[C@@H]1CN(C)S(=O)(=O)c1cccc(F)c1
Target or test system: Histone-lysine N-methyltransferase NSD2 (Homo sapiens) (UniProt O96028)
Measure name: inhibition
Unit: %
Readout value: -0.392

Given smiles: CCC(=O)N(C)C[C@@H]1Oc2cc(C#CCOC)ccc2S(=O)(=O)N([C@@H](C)CO)C[C@@H]1C
Target or test system: Histone-lysine N-methyltransferase NSD2 (Homo sapiens) (UniProt O96028)
Measure name: inhibition
Unit: %
Readout value: 4.65

Given smiles: Cc1ccc(S(=O)(=O)N(C)C[C@@H]2Oc3ccc(NC(=O)C4CCCCC4)cc3CC(=O)N([C@@H](C)CO)C[C@H]2C)cc1
Target or test system: Histone-lysine N-methyltransferase NSD2 (Homo sapiens) (UniProt O96028)
Measure name: inhibition
Unit: %
Readout value: -6.23

Given smiles: C[C@@H]1CN([C@H](C)CO)C(=O)c2cc(NS(=O)(=O)c3cn(C)cn3)ccc2O[C@@H](C)CCCCO[C@@H]1CN(C)C(=O)CCC(F)(F)F
Target or test system: Histone-lysine N-methyltransferase NSD2 (Homo sapiens) (UniProt O96028)
Measure name: inhibition
Unit: %
Readout value: -0.203

Given smiles: CCCN(C)C[C@H]1Oc2cc(C#CCC3CCCC3)ccc2S(=O)(=O)N([C@@H](C)CO)C[C@@H]1C
Target or test system: Histone-lysine N-methyltransferase NSD2 (Homo sapiens) (UniProt O96028)
Measure name: inhibition
Unit: %
Readout value: 1.41

* * *

Recorded inhibition for the following molecules
Target or test system: Histone-lysine N-methyltransferase NSD2 (Homo sapiens)
Assay name: NSD2 histone methyltransferase activity blockers – biochemical, plate reader, single point, primary screen (AID 624260);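 further: inhibitors reduce the monomethyl H3K36 fluorescence signal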
Assay setup: NSD2-SET H3K36me1 DELFIA fluorescence, at 12.5 µM, stronger effect = higher value
The whole screen tested about 44,000 compounds, of which about 30 (0.07%) were called active. Another 1% or so got no clear call; they are omitted. For the sample, actives were picked, then their nearest neighbours and some compounds at random.

Given smiles: COc1ccc(S(=O)(=O)Nc2ccc3c(c2)C(=O)N([C@@H](C)CO)C[C@H](C)[C@H](CN(C)Cc2ccc4c(c2)OCO4)OCCCC[C@H](C)O3)cc1
inhibition, %: 2.05
--
Given smiles: COc1ccccc1S(=O)(=O)N(C)C[C@H]1Oc2cc(C#CCC3CCCC3)ccc2S(=O)(=O)N([C@@H](C)CO)C[C@H]1C
inhibition, %: -4.13
--
Given smiles: C[C@@H]1CN([C@@H](C)CO)S(=O)(=O)c2ccc(C#Cc3ccccc3F)cc2O[C@H]1CN(C)C(=O)c1ccc2c(c1)OCO2
inhibition, %: -0.635
--
Given smiles: C[C@H](O)C#Cc1ccc2c(c1)O[C@H](CN(C)Cc1cccnc1)[C@H](C)CN([C@H](C)CO)S2(=O)=O
inhibition, %: 2.25
--
Given smiles: C[C@H](CO)N1C[C@H](C)[C@@H](CN(C)S(=O)(=O)c2ccc(F)cc2)Oc2ccc(NC(=O)CCCCCC(=O)Nc3ccccc3N)cc2CC1=O
inhibition, %: -1.08
--
Given smiles: COc1ccc(NC(=O)Nc2ccc3c(c2)C(=O)N([C@H](C)CO)C[C@@H](C)[C@H](CN(C)C(=O)Cc2ccccc2)OCCCC[C@H](C)O3)cc1
inhibition, %: -2.17
--
Given smiles: C[C@@H]1CN([C@@H](C)CO)C(=O)Cc2cc(NS(C)(=O)=O)ccc2O[C@H]1CN(C)S(=O)(=O)c1ccc(F)cc1
inhibition, %: 5.39

* * *

Target or test system: Histone-lysine N-methyltransferase NSD2 (Homo sapiens)
Assay name: NSD2 histone methyltransferase activity blockers – biochemical, plate reader, single point, primary screen (AID 624260);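 further: inhibitors reduce the monomethyl H3K36 fluorescence signal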
Assay setup: NSD2-SET H3K36me1 DELFIA fluorescence, at 12.5 µM, stronger effect = higher value
About 30 (0.07%) of roughly 44,000 compounds were called active. Roughly 1% stayed inconclusive and do not appear here. The sample as a whole holds a higher share of actives than the screen did.
Measure name: inhibition (%)

Given smiles: Cc1noc(C)c1S(=O)(=O)Nc1ccc2c(c1)CC(=O)N([C@@H](C)CO)C[C@@H](C)[C@H](CN(C)S(=O)(=O)c1cccs1)O2
Measure name: inhibition
Unit: %
Readout value: -2.26
//
Given smiles: C[C@@H](NC(=O)C[C@H]1C[C@@H]2c3cc(NC(=O)C4CCC4)ccc3O[C@@H]2[C@@H](CO)O1)c1ccccc1
Measure name: inhibition
Unit: %
Readout value: -3.13
//
Given smiles: C/C=C/c1ccc2c(c1)O[C@@H](CN(C)C(=O)Cc1ccccc1)[C@H](C)CN([C@@H](C)CO)S2(=O)=O
Measure name: inhibition
Unit: %
Readout value: 5.94
//
Given smiles: CNC[C@H]1Oc2cc(C#CCOC)ccc2S(=O)(=O)N([C@@H](C)CO)C[C@H]1C
Measure name: inhibition
Unit: %
Readout value: -0.881

* * *

Target or test system: Histone-lysine N-methyltransferase NSD2 (Homo sapiens) (UniProt O96028)
Assay name: NSD2 histone methyltransferase activity blockers – biochemical, plate reader, single point, primary screen (AID 624260);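 further: inhibitors reduce the monomethyl H3K36 fluorescence signal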
Assay setup: NSD2-SET H3K36me1 DELFIA fluorescence, at 12.5 µM, stronger effect = higher value
Screen size: about 44,000 compounds; about 30 (0.07%) were called active. Another 1% or so got no clear call; they are omitted. The entries come from a sample that favours actives as a whole.

Given smiles: Cc1ccccc1S(=O)(=O)N(C)C[C@@H]1OCc2ccccc2-c2c(n(C)c3ccccc23)C(=O)N([C@H](C)CO)C[C@H]1C
inhibition [%]: -9.38
--
Given smiles: C[C@H](CO)N1C[C@H](C)[C@@H](CN(C)C(=O)C2CC2)Oc2cc(-c3cccc(C#N)c3)ccc2S1(=O)=O
inhibition [%]: -3.58
--
Given smiles: COc1cccc(CNC(=O)C[C@H]2CC[C@@H](NC(=O)C3CCC3)[C@@H](CO)O2)c1
inhibition [%]: 2.46
--
Given smiles: COc1ccc(NC(=O)N(C)C[C@H]2OCc3ccccc3-c3ccccc3C(=O)N([C@H](C)CO)C[C@@H]2C)cc1
inhibition [%]: -1.37
--
Given smiles: C[C@H](CO)N1C[C@H](C)[C@@H](CN(C)C)Oc2cc(C#Cc3ccccc3)ccc2S1(=O)=O
inhibition [%]: -6.31
--
Given smiles: C[C@H](CO)N1C[C@H](C)[C@@H](CN(C)Cc2ccc(C(F)(F)F)cc2)Oc2ccc(NC(=O)Cn3cnnn3)cc2CC1=O
inhibition [%]: -8
--
Given smiles: CCCC#Cc1ccc2c(c1)O[C@H](CN(C)C(=O)c1ccncc1)[C@H](C)CN([C@H](C)CO)S2(=O)=O
inhibition [%]: 5.45
--
Given smiles: COc1ccccc1NC(=O)N[C@H]1CC[C@@H](CC(=O)NCc2ccc(Cl)c(Cl)c2)O[C@H]1CO
inhibition [%]: -9.36
